Data provenance: paper PMC9960827

System: human embryonic kidney (HEK) cells
measurement.description: Resazurin toxicity assay on human embryonic kidney cells
Type: cell-based
particulars: selectivity index = EC50 (HEK cells)/EC50 (T. equiperdum)
Items are presented alongside their recorded SI T. equiperdum.
Give your answer as a number; write no unit.

- Nc1ncnc2c1c(Br)cn2[C@@H]1O[C@H](CO)C[C@H]1O: 4271
- C#Cc1cn([C@@H]2O[C@H](CO)C[C@H]2O)c2ncnc(N)c12: 446

Consider the record given below.
Retrieve SI T. equiperdum measured for Nc1ncnc2c1c(Br)cn2[C@@H]1O[C@H](CO)[C@@H](O)[C@H]1O and print it.
28

====

Tested on: human embryonic kidney (HEK) cells
measurement.description: Resazurin toxicity assay on human embryonic kidney cells
Format: cell-based
assay.metric: pEC50
The quantity pEC50 is defined as the negative base-10 logarithm of the molar concentration.

Study these solved cases before continuing.
• Nc1ncnc2c1c(F)cn2[C@@H]1O[C@H](CO)C[C@H]1O = 5.77
• C#Cc1cn([C@@H]2O[C@H](CO)C[C@H]2O)c2ncnc(N)c12 = 5.93

# context switch: different molecule, same pEC50
Provide the reported pEC50 (system: human embryonic kidney (HEK) cells) for Nc1ncnc2c1c(I)cn2[C@@H]1O[C@H](CO)C[C@H]1O
5.31

====

tested.system: TcoAT1
Format: cell-based, Trypanosoma congolense
particulars: 0.05 µM [3H]-adenosine, 10 s; IC50 converted to Ki; read-out: Ki on the transport of [3H]-adenosine
assay.metric: pKi
Friendly reminder that pKi comes from taking -log10 of the concentration in mol/L.

Here are 3 compounds together with their reported answers.
• Nc1ncnc2c1c(Cl)cn2[C@@H]1O[C@H](CO)C[C@H]1O = 4.22
• C[C@H]1O[C@@H](n2cnc3c(N)ncnc32)[C@H](O)[C@@H]1O = 6.35
• Nc1ccnc2c1ncn2[C@@H]1O[C@H](CO)[C@@H](O)[C@H]1O = 5.99

Note pKi for the compound shown: COc1ncnc2c1ccn2[C@@H]1O[C@H](CO)[C@@H](O)[C@H]1O [CL4510, 6-methoxy-7-deazapurine riboside]
3.65

====

tested.system: TvxNT3 (Trypanosoma vivax)
Sequence (F9WV62 entry or part of it): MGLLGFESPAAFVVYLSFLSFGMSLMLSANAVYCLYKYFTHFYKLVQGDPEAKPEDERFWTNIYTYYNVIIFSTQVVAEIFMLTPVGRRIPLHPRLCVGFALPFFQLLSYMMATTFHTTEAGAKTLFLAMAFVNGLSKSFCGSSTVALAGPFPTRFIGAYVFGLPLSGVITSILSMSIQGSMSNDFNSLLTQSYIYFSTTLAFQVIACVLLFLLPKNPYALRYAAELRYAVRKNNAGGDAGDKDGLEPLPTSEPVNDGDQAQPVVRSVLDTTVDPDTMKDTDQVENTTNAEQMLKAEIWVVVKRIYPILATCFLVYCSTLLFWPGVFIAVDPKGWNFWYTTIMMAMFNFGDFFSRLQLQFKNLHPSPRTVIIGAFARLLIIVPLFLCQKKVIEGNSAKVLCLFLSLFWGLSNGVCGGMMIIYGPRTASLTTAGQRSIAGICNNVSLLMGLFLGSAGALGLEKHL
measurement.description: cell-based
Format: cell-based
particulars: difference in ΔG0 relative to the parent purine (adenosine or inosine)
assay.metric: δ(ΔG0)

Illustrative cases are given below, each with its answer.
- O=c1[nH]cnc2c1ncn2[C@@H]1O[C@H](CO)[C@@H](O)[C@H]1O: 1.21 kcal/mol
- Nc1ncnc2c1ncn2[C@H]1C[C@H](O)[C@@H](CO)O1: 0.167 kcal/mol
- C[C@H]1O[C@@H](n2cnc3c(N)ncnc32)[C@H](O)[C@@H]1O: 0.151 kcal/mol

--- query ---
Provide δ(ΔG0), recorded with TvxNT3 (Trypanosoma vivax), of O=c1[nH]cnc2nc[nH]c12
-1.78 kcal/mol

====

tested.system: T. congolense adenosine transporter
measurement.description: [3H]-adenosine uptake and its inhibition in T. congolense IL3000 bloodstream forms
particulars: 0.05 µM [3H]-adenosine, 30 s; IC50 converted to Ki; read-out: Ki on the transport of [3H]-adenosine
Method: Uptake assays using radiolabeled trypanocides and/or nucleosides were carried out as described previously. […] The radiolabeled permeant in the presence or absence of different concentrations of potential inhibitors reconstituted in 100 μL assay buffer was deposited on top of 250 μL oil mix in microcentrifuge tubes; 1 × 10^7 parasites in 100 μL assay buffer were added to the tube and incubated for a pre-determined interval. […] Scintillation was measured in a 300SL (Hidex) scintillation counter (Hidex). […]
pKi: −log10 of the molar value.
Where pKi equals or exceeds 5, the correct label is satisfied; where it does not, the label is not satisfied.

Please review the following examples before continuing.
* C=Cc1cn([C@@H]2O[C@H](CO)C[C@H]2O)c2ncnc(N)c12 | not satisfied
* O=c1ccn([C@@H]2O[C@H](CO)[C@@H](O)[C@H]2O)c(=O)[nH]1 | not satisfied
* Nc1nc2c(ncn2[C@@H]2O[C@H](CO)[C@@H](O)[C@H]2O)c(=O)[nH]1 | satisfied
* Nc1ncnc2c1c(F)cn2[C@@H]1O[C@H](CO)C[C@H]1O | not satisfied
* Nc1ccn([C@@H]2O[C@H](CO)[C@@H](O)[C@H]2O)c(=O)n1 | not satisfied

Decide: pKi of Nc1ncnc2c1ccn2[C@@H]1O[C@H](CO)[C@@H](O)[C@H]1O >= 5?
not satisfied

Record Cc1cn([C@H]2C[C@H](O)[C@@H](CO)O2)c(=O)[nH]c1=O ; criterion: pKi no lower than 5. Met?
not satisfied

Does pKi meet or surpass 5 for Nc1ncnc2c1c(I)cn2[C@@H]1O[C@H](CO)C[C@H]1O ?
not satisfied

Is pKi at least 5? Consider O=c1[nH]cnc2c1ncn2[C@@H]1O[C@H](CO)[C@@H](O)[C@H]1O
satisfied

Check the entry Nc1ncnc2c1ccn2C1OC(CO)CC1O (stereo not drawn) : does pKi equal or exceed 5?
not satisfied

Test whether the molecule Nc1ncnc2c1c(Cl)cn2[C@@H]1O[C@H](CO)C[C@H]1O records pKi of 5 or higher.
not satisfied

====

Test system: human embryonic kidney (HEK) cells
measurement.description: Resazurin toxicity assay on human embryonic kidney cells
Type: cell-based
particulars: resazurin, 96 well plates; read-out: HEK EC50
Procedure: EC50 values were determined by plotting to an equation for a sigmoid curve with variable slope (GraphPad Prism 8). All values were the average of at least three independent determinations on different days.
assay.metric: pEC50
Convention used: pEC50 is expressed as -log10 of the molar concentration.

- Nc1ncnc2c1c(Br)cn2[C@@H]1O[C@H](CO)[C@@H](O)[C@H]1O: 5.63
- Nc1ncnc2c1c(Cl)cn2[C@@H]1O[C@H](CO)[C@@H](O)[C@H]1O: 5.34

Next item in the queue.
Please supply the value of reported pEC50 for the item Nc1ncnc2c1c(-c1ccccn1)cn2[C@@H]1O[C@H](CO)[C@@H](O)[C@H]1O
4.73

====

tested.system: TcoAT1
Type: cell-based, Trypanosoma congolense
particulars: 0.05 µM [3H]-adenosine, 10 s; IC50 converted to Ki; listed as TMD; read-out: Ki on the transport of [3H]-adenosine
assay.metric: Ki

# assay system TcoAT1: give Ki of Cc1cn([C@H]2C[C@H](O)[C@@H](CO)O2)c(=O)[nH]c1=O
49.6 µM

====

Readings of ΔG0 for the listed molecules
tested.system: UniProt F9WV62
measurement.description: cell-based
Type: cell-based
particulars: Gibbs free energy of interaction, from Km or Ki
Numeric answer only, unit kcal/mol assumed.

Example results:
• C[C@H]1O[C@@H](n2cnc3c(N)ncnc32)[C@H](O)[C@@H]1O = -8.13
• OC[C@H]1O[C@@H](n2cnc3cncnc32)[C@H](O)[C@@H]1O = -7.27
• Nc1ncnc2[nH]cnc12 = -7.658

Tell me measured ΔG0 for OC[C@H]1O[C@@H](n2cnc3c(S)ncnc32)[C@H](O)[C@@H]1O please.
-7.36

Assign ΔG0 to the following record: Nc1nc2c(ncn2[C@@H]2O[C@H](CO)[C@@H](O)[C@H]2O)c(=O)[nH]1
-7.995

Write down ΔG0 measured for item O=c1[nH]cnc2nc[nH]c12
-7.851

Report ΔG0 for O=c1ccn([C@@H]2O[C@H](CO)[C@@H](O)[C@H]2O)c(=O)[nH]1
-4.285

Tell me measured ΔG0 for Cc1cn([C@H]2C[C@H](O)[C@@H](CO)O2)c(=O)[nH]c1=O please.
-4.391

Indicate the recorded ΔG0 value for this molecule: Nc1ncnc2c1ccn2C1OC(CO)CC1O (stereo not shown)
-4.66

====

System: L. mexicana SUPKO+TvxNT3
measurement.description: microbe, parasite or virus in culture
Type: cell-based, Leishmania mexicana
particulars: resazurin, promastigotes; read-out: SUPKO+TvxNT3 EC50
Description: EC50 values were determined by plotting to an equation for a sigmoid curve with variable slope (GraphPad Prism 8). All values were the average of at least three independent determinations on different days.
assay.metric: EC50

Below, each entry is followed by its recorded EC50 result.
* Nc1ncnc2c1ccn2C1OC(CO)CC1O (centres unmarked) [FH7429_d, 3′-deoxytubercidin] | > 100 µM
* Nc1ncnc2c1c(I)cn2[C@@H]1O[C@H](CO)C[C@H]1O [FH8496] | 40 µM
* Nc1ncnc2c1c(-c1ccccn1)cn2[C@@H]1O[C@H](CO)[C@@H](O)[C@H]1O [TH1008] | > 100 µM
* Nc1ncnc2c1c(Br)cn2[C@@H]1O[C@H](CO)[C@@H](O)[C@H]1O [TH1003] | > 100 µM
* C=Cc1cn([C@@H]2O[C@H](CO)C[C@H]2O)c2ncnc(N)c12 [FH10659] | > 100 µM

Return the recorded EC50 value; entry: Nc1ncnc2c1c(Cl)cn2[C@@H]1O[C@H](CO)[C@@H](O)[C@H]1O [FH3169]
15.9 µM

State its EC50: NCCS[As](SCCN)c1ccc(Nc2nc(N)nc(N)n2)cc1 [melarsomine, reference compound]
> 100 µM

Read the entry COc1ncnc2c1ccn2[C@@H]1O[C@H](CO)[C@@H](O)[C@H]1O [CL4510, 6-methoxy-7-deazapurine riboside] and write its reported EC50.
2.05 µM
